Molecular target: UniProt:Q5NUL3
Sequence (Q5NUL3 1-361): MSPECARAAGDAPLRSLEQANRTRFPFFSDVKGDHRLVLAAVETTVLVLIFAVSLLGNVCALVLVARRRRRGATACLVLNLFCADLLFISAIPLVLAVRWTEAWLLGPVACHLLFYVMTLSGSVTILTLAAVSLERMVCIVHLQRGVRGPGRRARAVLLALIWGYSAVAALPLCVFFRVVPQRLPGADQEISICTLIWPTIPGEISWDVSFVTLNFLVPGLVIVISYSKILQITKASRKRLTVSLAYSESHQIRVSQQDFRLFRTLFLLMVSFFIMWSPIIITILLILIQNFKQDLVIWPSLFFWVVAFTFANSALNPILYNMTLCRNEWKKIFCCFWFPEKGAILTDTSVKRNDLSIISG
Assay: Measurement of Activity of GPR120 Agonist (Cell-Based Assay), Calcium 5 dye fluorescence
Conditions: CHO-K1 cells expressing Ga16 and hGPR120
Below, each entry is listed with its recorded EC50.

// known answers, use as guide
Input: Dear colleague, I am looking for the recorded EC50 of the following compound: CCN(CCCC(=O)O)c1c(F)cc(-c2cccnc2OC(C)C)cc1F [Example 226]
Output: 200 to 2000 nM

Input: Dear colleague, I am looking for the recorded EC50 of the following compound: CN(CCCC(=O)O)c1c(F)cc(-c2cccc3c2OC(F)(F)O3)cc1F [Example 203]
Output: < 200 nM

Now let's try a different one.
Input: Dear colleague, I am looking for the recorded EC50 of the following compound: O=C(O)CC1CCN(c2c(F)cc(-c3ncc(F)c(OC4CCC4)n3)cc2F)CC1 [Example 371]
Output: < 200 nM
